B1: HDV Ribozyme (parent)
chain: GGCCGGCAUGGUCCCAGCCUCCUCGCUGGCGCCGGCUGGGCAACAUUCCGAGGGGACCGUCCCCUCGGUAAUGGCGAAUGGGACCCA

Variants of: B1
Experiment: self-cleavage, relative activity (ratio to wild type); higher = more cleavage; co-transcriptional
VALUE_TYPE: self-cleavage

A selection of reference data follows.
U12C C19U | 0.0415
C36A A83U | 0.0219
C44U C66U | 0.817
G10A C41G | 0.68
C7U C21U | 0.0652
G5U G31C | 0.0723
G50A C85A | 0.941
C30G G35U | 0.138
U65G C85A | 1.11
C14A C86A | 0.886

Which value of self-cleavage has been reported for U20C U60A in the records?
0.115

Which value of self-cleavage has been reported for G1U C86U in the records?
0.212

Which value of self-cleavage has been reported for G39C A83C in the records?
0.243

Which value of self-cleavage has been reported for C13U C33G in the records?
0.252

Every entry's value here was drawn from the RNAGym collection of RNA variant scans (doi:10.7554/elife.80360).
